# SUBJECT OF TEST: HLA-A*23:01
# ASSAY METHOD TEXT: IEDB peptide-MHC binding, purified MHC/direct/fluorescence; filed as Kd, often an IC50 or EC50 that approximates it; bounds were set here for any values at or beyond the usual limits of such assays
# MEASUREMENT PARAMETERS: source organism: Rickettsia bellii OSU 85-389
MEASURE NAME: Kd

Kd reading for `AKIALAVYK` : ≥ 20 µM

====

# SUBJECT OF TEST: HLA-B*57:01
# ASSAY METHOD TEXT: IEDB peptide-MHC binding, purified MHC/competitive/fluorescence; filed as Kd, often an IC50 or EC50 that approximates it; bounds were set here for any values at or beyond the usual limits of such assays
# MEASUREMENT PARAMETERS: source organism: Cryptosporidium parvum Iowa II
MEASURE NAME: Kd

Memo: `GFPFFIMPK` , reported Kd: ≥ 20 µM

====

# SUBJECT OF TEST: HLA-B*40:02
# ASSAY METHOD TEXT: IEDB peptide-MHC binding, purified MHC/competitive/radioactivity; filed as Kd, often an IC50 or EC50 that approximates it; bounds were set here for any values at or beyond the usual limits of such assays
# MEASUREMENT PARAMETERS: source organism: Mammarenavirus machupoense
MEASURE NAME: pKd
Note: pKd values are expressed as the negative base-10 logarithm of concentration in M.

The sequence `EEPVALLPLS` , when measured on HLA-B*40:02, yielded pKd of 5.36

====

# SUBJECT OF TEST: HLA-B*44:02
# ASSAY METHOD TEXT: IEDB peptide-MHC binding, purified MHC/competitive/radioactivity; filed as Kd, often an IC50 or EC50 that approximates it; bounds were set here for any values at or beyond the usual limits of such assays
# MEASUREMENT PARAMETERS: source organism: SARS coronavirus Tor2
Criterion: Kd strictly less than 0.09 µM. Met: MET. Not met: NOT MET.

query: Confirm or reject: Kd of `MEAQFLYLY` lies strictly below 0.09 µM
result: MET

query: Quick check: Kd of `REGVFVFNG` under 0.09 µM?
result: NOT MET

query: Record `EEAIRHVRA` : is its Kd strictly below 0.09 µM?
result: NOT MET

query: Does this sequence meet the criterion Kd < 0.09 µM? `AEWVLAYMLF`
result: MET

query: Problem: For the sequence `METDFLELAM` , is Kd under 0.09 µM?
result: MET

query: Threshold test, Kd < 0.09 µM: `WEILKFLITG`
result: NOT MET

query: Item `FEVLAVEDT` : Kd beneath 0.09 µM, strictly?
result: NOT MET

query: Threshold test, Kd < 0.09 µM: `RELNGGAVT`
result: NOT MET

query: Lab note: confirm whether the reported Kd for this sequence is below 0.09 µM, equality not counting. sequence: `EEVVLKNGEL`
result: MET

query: Take the sequence `CEEMLDNRAT` and say whether its Kd is less than 0.09 µM.
result: NOT MET

query: Strictly below 0.09 µM: is that where Kd of `GESVKTQFNY` sits?
result: NOT MET

query: Consider `SDEVARDLSL` . Does its Kd lie strictly below 0.09 µM?
result: NOT MET

Hey, just so you know, these numbers are from the Immune Epitope Database (IEDB).
